B1: library; a variant is named by its letters at N, in order (parent)
chain: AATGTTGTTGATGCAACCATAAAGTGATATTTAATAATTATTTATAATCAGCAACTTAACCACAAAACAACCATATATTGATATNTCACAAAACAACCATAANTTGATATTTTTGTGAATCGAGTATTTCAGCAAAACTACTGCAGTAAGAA

Variants of: B1
Assay: relative integration efficiency (T-RL orientation) vs wild-type transposon end (log2 (normalized fold change)); transposon end mutated: left end; higher = more efficient transposition
Conditions: with VchCAST RNA-guided transposition machinery (E. coli BL21(DE3) host, lacZ target)
Threshold check on relative integration efficiency (log2): at or above -0.3 gives true (1), strictly below gives false (0).

As a guide, the following entries are already answered.
* CG C49G | true (1)
* CG A54T C55G | false (0)
* CG T20G T74G T100G | false (0)

Given the entry CG C71G C72G A73T T74A , answer whether its relative integration efficiency (log2) meets or surpasses -0.3.
false (0)

Given the entry CG C63G , answer whether its relative integration efficiency (log2) meets or surpasses -0.3.
true (1)

Given the entry CG C98A , answer whether its relative integration efficiency (log2) meets or surpasses -0.3.
true (1)

Given the entry CG A65G , answer whether its relative integration efficiency (log2) meets or surpasses -0.3.
true (1)

Given the entry TA A22T G24T T31C A33C T76A A77G C87T T104G T113A , answer whether its relative integration efficiency (log2) meets or surpasses -0.3.
false (0)

Given the entry TA A23G G24T A33T T76A T78G C87A T104A T110A T113A , answer whether its relative integration efficiency (log2) meets or surpasses -0.3.
true (1)

Given the entry CG C94G , answer whether its relative integration efficiency (log2) meets or surpasses -0.3.
false (0)

Given the entry CG C18G A19T , answer whether its relative integration efficiency (log2) meets or surpasses -0.3.
false (0)

Given the entry CG A109T T110A , answer whether its relative integration efficiency (log2) meets or surpasses -0.3.
true (1)

Given the entry CG A81T , answer whether its relative integration efficiency (log2) meets or surpasses -0.3.
false (0)

Given the entry CG G4T T5G T6G G7T , answer whether its relative integration efficiency (log2) meets or surpasses -0.3.
false (0)

Given the entry CG C55T , answer whether its relative integration efficiency (log2) meets or surpasses -0.3.
true (1)

Given the entry CG T42A A44T C49A G51T C52T C55T A59T C60A C61T C63T A64T A65T , answer whether its relative integration efficiency (log2) meets or surpasses -0.3.
false (0)

Given the entry CG T31G , answer whether its relative integration efficiency (log2) meets or surpasses -0.3.
true (1)

Given the entry CG T28A A29T , answer whether its relative integration efficiency (log2) meets or surpasses -0.3.
false (0)

Given the entry CG T104A T105A G106C A107T , answer whether its relative integration efficiency (log2) meets or surpasses -0.3.
false (0)

Given the entry CG A47C , answer whether its relative integration efficiency (log2) meets or surpasses -0.3.
true (1)

Given the entry CG G80C , answer whether its relative integration efficiency (log2) meets or surpasses -0.3.
false (0)

Given the entry CG T30A T31C T32A A77C T86G , answer whether its relative integration efficiency (log2) meets or surpasses -0.3.
true (1)

Given the entry CG G117C , answer whether its relative integration efficiency (log2) meets or surpasses -0.3.
false (0)

Given the entry CT A23C G24T A77C T78G T104G , answer whether its relative integration efficiency (log2) meets or surpasses -0.3.
false (0)

Given the entry CG A29T T30A , answer whether its relative integration efficiency (log2) meets or surpasses -0.3.
true (1)

Given the entry CA G24A T30A A96C T112G T113C , answer whether its relative integration efficiency (log2) meets or surpasses -0.3.
true (1)
